Molecular target: 11b-HSD1 (Homo sapiens)
Sequence (P28845 whole entry): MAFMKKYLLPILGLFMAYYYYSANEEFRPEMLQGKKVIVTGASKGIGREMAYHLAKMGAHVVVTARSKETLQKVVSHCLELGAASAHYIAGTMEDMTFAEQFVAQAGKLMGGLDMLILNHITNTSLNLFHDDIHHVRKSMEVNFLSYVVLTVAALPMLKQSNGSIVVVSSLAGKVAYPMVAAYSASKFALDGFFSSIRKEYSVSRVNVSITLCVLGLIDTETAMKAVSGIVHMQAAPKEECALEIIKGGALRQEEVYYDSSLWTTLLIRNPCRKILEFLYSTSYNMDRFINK
Assay: Enzymatic assay, 11b-HSD1 dependent conversion of cortisone into cortisol (reductase activity)
Conditions: recombinant protein, 2 μM cortisone, 45 min at 37 C; read-out: [C1] HSD1-prot Reduct Score
Below, each entry is listed with its recorded IC50.

The cases that follow already have their IC50 on record.
1) O=C1C(Cc2c(Cl)cccc2Cl)CCN1Cc1ccccc1 (stereo not drawn)	1 to 10 µM
2) CCC(CC1(CC(CC)c2ccccc2)CCN([C@@H](C)c2ccccc2)C1=O)c1ccccc1 (mixture of isomers)	> 10 µM
3) C[C@@H](c1ccccc1)N1CC[C@@H](Cc2ccccc2)C1=O	1 to 10 µM
4) O=C1C(Cc2c(Cl)cccc2Cl)CCN1CCCc1ccccc1 (stereo not drawn)	> 10 µM
5) O=C1[C@@H](Cc2c(Cl)cccc2Cl)CCN1[C@@H](CO)c1ccccc1	1 to 10 µM

Query: Give recorded IC50 with 11b-HSD1 (Homo sapiens) for the following compound: C[C@@H](c1ccccc1)N1CC[C@H]([C@@](C)(O)c2ccc(CCBr)cc2)C1=O
Reply: < 1 µM

Query: Give recorded IC50 with 11b-HSD1 (Homo sapiens) for the following compound: COc1ccccc1CC[C@H]1CCN([C@@H](C)c2ccccc2)C1=O
Reply: 1 to 10 µM

Query: Give recorded IC50 with 11b-HSD1 (Homo sapiens) for the following compound: CC[C@@H](c1ccccc1)N1CC[C@@H](Cc2c(Cl)cccc2Cl)C1=O
Reply: < 1 µM

Query: Give recorded IC50 with 11b-HSD1 (Homo sapiens) for the following compound: C[C@H](c1ccccc1)N1CC[C@@H](Cc2ccccc2)C1=O
Reply: > 10 µM

Query: Give recorded IC50 with 11b-HSD1 (Homo sapiens) for the following compound: Cc1ccc(CC2CCN(Cc3ccccc3)C2=O)cc1 (stereo not drawn)
Reply: > 10 µM

Query: Give recorded IC50 with 11b-HSD1 (Homo sapiens) for the following compound: C[C@@H](c1ccccc1)N1CC[C@H](Cc2c(Cl)cccc2Cl)C1=O
Reply: < 1 µM

Query: Give recorded IC50 with 11b-HSD1 (Homo sapiens) for the following compound: O=C1C(Cc2cccc(Cl)c2Cl)CCN1CCc1ccccc1 (stereo not drawn)
Reply: 1 to 10 µM

Query: Give recorded IC50 with 11b-HSD1 (Homo sapiens) for the following compound: C[C@@H](c1ccccc1)N1CC[C@@H](CCc2ccccc2)C1=O
Reply: > 10 µM

Query: Give recorded IC50 with 11b-HSD1 (Homo sapiens) for the following compound: CO[C@H](C[C@H]1CCN([C@@H](C)c2ccccc2)C1=O)c1ccccc1
Reply: 1 to 10 µM
